system-tested: MAP kinase-activated protein kinase 2 (Homo sapiens, UniProt P49137)
experiment: Inhibition of MAPKAPK2 at 30 uM by microfluidic mobility shift assay
Sequence (P49137 whole entry, looked up): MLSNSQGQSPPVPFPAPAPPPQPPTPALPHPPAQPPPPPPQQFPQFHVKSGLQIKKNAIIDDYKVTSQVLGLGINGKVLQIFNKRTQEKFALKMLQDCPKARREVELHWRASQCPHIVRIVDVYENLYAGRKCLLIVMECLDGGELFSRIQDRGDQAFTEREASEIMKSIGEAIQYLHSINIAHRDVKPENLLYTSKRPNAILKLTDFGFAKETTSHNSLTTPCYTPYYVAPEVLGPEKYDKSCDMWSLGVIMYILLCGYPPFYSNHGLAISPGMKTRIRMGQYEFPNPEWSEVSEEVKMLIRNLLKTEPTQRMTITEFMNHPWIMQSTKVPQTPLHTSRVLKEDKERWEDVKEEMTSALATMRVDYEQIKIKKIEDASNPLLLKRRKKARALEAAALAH
recorded-endpoint: inhibition (%)

Nc1n[nH]c2cc(CC3CCNCC3)[nH]c(=O)c12 ... 35

[P] Nc1n[nH]c2cc(-c3ccccn3)[nH]c(=O)c12
[Q] Cc1cc2nc(N)nc(N)c2c(=O)[nH]1
[R] Nc1c2c(=O)[nH]c(-c3ccccn3)cc2nn1-c1ccccc1
[S] Cc1cc2c(c(NC(=O)Nc3ccccc3)nn2C)c(=O)[nH]1
[T] COCCNc1nc(-c2ccccc2)cc2c1c(N)nn2C
Exercise: Ordering criterion: inhibition; begin with the maximum. Put the labels in the requested order and list them out.
Key: P, Q, R, T, S

###

system-tested: Serine/threonine-protein kinase Chk1 (Homo sapiens) (UniProt O14757)
Sequence (whole entry): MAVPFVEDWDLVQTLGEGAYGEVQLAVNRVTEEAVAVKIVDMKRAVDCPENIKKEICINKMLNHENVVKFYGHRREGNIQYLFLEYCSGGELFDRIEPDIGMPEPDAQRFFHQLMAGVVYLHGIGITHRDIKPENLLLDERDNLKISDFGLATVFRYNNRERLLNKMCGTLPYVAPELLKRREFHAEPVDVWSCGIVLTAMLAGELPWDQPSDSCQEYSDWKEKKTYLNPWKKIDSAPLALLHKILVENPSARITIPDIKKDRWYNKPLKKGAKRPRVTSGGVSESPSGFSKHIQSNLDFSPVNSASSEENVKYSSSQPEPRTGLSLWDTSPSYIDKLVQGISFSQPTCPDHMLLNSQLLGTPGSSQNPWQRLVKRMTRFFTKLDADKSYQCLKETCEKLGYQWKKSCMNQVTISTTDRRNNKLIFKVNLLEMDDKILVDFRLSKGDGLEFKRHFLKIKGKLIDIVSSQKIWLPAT
experiment: Inhibition of CHK1 at 30 uM by microfluidic mobility shift assay
recorded-endpoint: inhibition (%)

Use these answered entries as a reference point.
Nc1c2c(=O)[nH]c(-c3ccccn3)cc2nn1-c1ccccc1 ... 7
CN1CCN(c2ccc(-c3cc4c(c(N)nn4C)c(=O)[nH]3)cc2)CC1 ... 67
Cc1cc2c(c(N)nn2C)c(=O)[nH]1 ... -8

[I] CC(C)(C)c1cc2nn(-c3ccccc3)c(N)c2c(=O)[nH]1
[II] COc1ccc(-c2cc3nn(-c4ccccc4)c(N)c3c(=O)[nH]2)cc1
[III] COc1ccc(S(=O)(=O)Nc2nn(C)c3cc(C)[nH]c(=O)c23)c(OC)c1
[IV] Cc1cc2nn(-c3ccccc3)c(N)c2c(N2CCCCC2)n1
Exercise: Hello, I need these entries ordered by inhibition, highest reading first. Thanks! Would you mind listing the labels in the order asked for?
Key: I, II, III, IV

[a] Cc1cc2[nH]nc(N)c2c(N2CCCCC2)n1
[b] CN1CCN(c2ccc(-c3cc4[nH]nc(N)c4c(=O)[nH]3)cc2)CC1
[c] Cc1cc2nn(-c3ccccc3)c(N)c2c(=O)[nH]1
Exercise: Rank by inhibition (largest to smallest). In plain terms: list the labels in the order you were asked to.
Key: b, a, c
(b: 54%, a: 11%, c: -9%)

[I] Cc1cc2c(c(N)nn2C)c(N2CC[C@H](O)C2)n1
[II] Nc1n[nH]c2cc(-c3ccc(N4CCOCC4)cc3)[nH]c(=O)c12
Exercise: When their inhibition values are compared, which is larger, I or II ? Pick one and reply with its label.
Key: II

###

system-tested: Tyrosine-protein kinase Fyn (Homo sapiens)
Sequence (P06241 2-537 limits assumed): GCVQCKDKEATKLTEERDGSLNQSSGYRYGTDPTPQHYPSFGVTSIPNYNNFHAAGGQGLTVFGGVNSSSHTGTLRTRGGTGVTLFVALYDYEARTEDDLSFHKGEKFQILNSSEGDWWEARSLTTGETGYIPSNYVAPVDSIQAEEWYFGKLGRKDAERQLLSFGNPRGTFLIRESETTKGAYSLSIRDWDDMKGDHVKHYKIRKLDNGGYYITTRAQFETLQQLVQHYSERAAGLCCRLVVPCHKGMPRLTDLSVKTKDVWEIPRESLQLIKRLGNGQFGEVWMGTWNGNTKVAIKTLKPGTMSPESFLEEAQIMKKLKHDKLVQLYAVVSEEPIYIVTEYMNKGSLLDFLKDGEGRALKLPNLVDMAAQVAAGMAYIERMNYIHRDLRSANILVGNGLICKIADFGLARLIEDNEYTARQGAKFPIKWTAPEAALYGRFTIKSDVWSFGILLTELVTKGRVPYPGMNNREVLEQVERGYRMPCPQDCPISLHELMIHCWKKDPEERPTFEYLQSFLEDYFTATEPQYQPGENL
experiment: Inhibition of FYN at 30 uM by microfluidic mobility shift assay
recorded-endpoint: inhibition (%)

Example entries and their recorded answers appear below.
Nc1c2c(=O)[nH]c(-c3ccccn3)cc2nn1-c1ccccc1 ... 96
CC(=O)Nc1nn(C)c2cc(-c3ccc(N4CCN(C)CC4)cc3)[nH]c(=O)c12 ... 15
Nc1c2c(=O)[nH]c(-c3ccccc3)cc2nn1-c1ccccn1 ... 41
COCCNc1nc(C)cc2c1c(N)nn2C ... -1
Cc1nc(N)c2c(=O)[nH]c(C)cc2n1 ... 8
COc1cccc(-c2cc3[nH]nc(N)c3c(=O)[nH]2)c1 ... 42
Cc1cc2nn(-c3ccccc3)c(N)c2c(=O)[nH]1 ... 22
Cc1cc2[nH]nc(N)c2c(=O)[nH]1 ... 2
Nc1c2c(=O)[nH]c(-c3ccccc3)cc2nn1-c1ccccc1 ... 96
COc1ccc(-c2cc3[nH]nc(N)c3c(=O)[nH]2)cc1 ... 50

[P] Cc1cc2nn(-c3ccccc3)c(N)c2c(N2CCCCC2)n1
[Q] Nc1n[nH]c2cc(-c3ccc(N4CCOCC4)cc3)[nH]c(=O)c12
[R] COc1ccc(-c2c(C)[nH]c(=O)c3c(N)nn(C)c23)cc1
[S] Nc1n[nH]c2c3c([nH]c(=O)c12)CCCC3
Exercise: Given 4 compounds, produce a descending ranking by inhibition. Provide the ranking by listing each label in its place in the requested order.
Key: Q, R, S, P
(Q: 62%, R: 20%, S: 11%, P: 7%)

[a] COc1cccc(-c2cc3c(c(N)nn3C)c(=O)[nH]2)c1
[b] Cc1cc2[nH]nc(N)c2c(N2CCCCC2)n1
[c] Cc1cc2nc(N)nc(N)c2c(=O)[nH]1
[d] Cc1cc2[nH]nc(N)c2cn1
Exercise: I would appreciate it if you could sort these 4 compounds by inhibition, starting from the smallest number. Put the labels in the requested order and list them out.
Key: d, c, a, b
(d: 3%, c: 11%, a: 23%, b: 53%)

[1] Nc1n[nH]c2cc(-c3cccnc3)[nH]c(=O)c12
[2] Cc1cc2c(c(N)nn2C)c(N2CCOCC2)n1
[3] Cc1cc2c(c(N)nn2C)c(N2CC[C@H](O)C2)n1
[4] COCCNc1nc(C)cc2nn(-c3ccccc3)c(N)c12
[5] COc1ccccc1-c1cc2nn(-c3ccccc3)c(N)c2c(=O)[nH]1
Exercise: Order the entries by their reported inhibition, beginning at the minimum. Put the labels in the order asked and list them.
Key: 4, 3, 2, 1, 5
(4: -3%, 3: 1%, 2: 9%, 1: 24%, 5: 77%)

###

system-tested: Protein kinase C zeta type (Homo sapiens) (UniProt Q05513)
Sequence (Q05513 whole entry): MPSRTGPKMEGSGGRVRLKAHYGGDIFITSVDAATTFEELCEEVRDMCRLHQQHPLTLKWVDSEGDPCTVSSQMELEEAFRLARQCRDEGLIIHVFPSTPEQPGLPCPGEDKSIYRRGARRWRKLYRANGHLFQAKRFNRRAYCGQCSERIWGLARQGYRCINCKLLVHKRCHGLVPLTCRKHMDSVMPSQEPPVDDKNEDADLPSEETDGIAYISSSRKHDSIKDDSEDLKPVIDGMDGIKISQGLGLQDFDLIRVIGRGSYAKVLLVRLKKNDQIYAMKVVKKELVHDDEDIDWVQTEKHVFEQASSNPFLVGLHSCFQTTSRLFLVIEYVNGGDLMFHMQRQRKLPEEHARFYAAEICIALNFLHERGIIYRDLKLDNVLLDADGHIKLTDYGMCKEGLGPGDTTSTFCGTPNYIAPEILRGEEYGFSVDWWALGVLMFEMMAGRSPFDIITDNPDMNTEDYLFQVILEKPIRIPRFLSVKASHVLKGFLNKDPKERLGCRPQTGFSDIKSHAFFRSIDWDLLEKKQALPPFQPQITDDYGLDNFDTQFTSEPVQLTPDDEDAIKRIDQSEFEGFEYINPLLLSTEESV
experiment: Inhibition of PKCz at 30 uM by microfluidic mobility shift assay
recorded-endpoint: inhibition (%)

Cc1cc2nc(N)nc(N)c2c(=O)[nH]1 ... 8
Cn1nc(N)c2c(=O)[nH]c(-c3ccccc3)cc21 ... 6
Cc1cc2c(c(N)nn2C)c(=O)[nH]1 ... 0
COc1cccc(-c2cc3c(c(N)nn3C)c(=O)[nH]2)c1 ... 6

[1] COc1ccc(-c2cc3c(c(N)nn3C)c(=O)[nH]2)cc1
[2] COc1ccc(S(=O)(=O)Nc2nn(C)c3cc(C)[nH]c(=O)c23)c(OC)c1
[3] Cc1nc(N)c2c(=O)[nH]c(C)cc2n1
[4] Cn1nc(N)c2c(=O)[nH]c(-c3ccccn3)cc21
[5] CN1CCN(c2ccc(-c3cc4[nH]nc(N)c4c(=O)[nH]3)cc2)CC1
Exercise: Rank entries according to their inhibition, from the largest number down. Put the labels in the order asked and list them.
Key: 5, 2, 3, 4, 1
(5: 35%, 2: 21%, 3: 3%, 4: 0%, 1: -3%)

[A] CN1CCN(c2ccc(-c3cc4nn(-c5ccccc5)c(N)c4c(=O)[nH]3)cc2)CC1
[B] Nc1c2c(=O)[nH]c(-c3ccccc3)cc2nn1-c1ccccn1
Exercise: Input pair: A , B . Output: entry with lower inhibition. # respond with the chosen item's label
Key: B
(B: -3%, A: 23%)

###

system-tested: MAP kinase-activated protein kinase 2 (Homo sapiens)
experiment: Inhibition of MAPKAPK2 by microfluidic mobility shift assay
Sequence (P49137 whole entry): as the sequence (P49137 whole entry, looked up) above
recorded-endpoint: IC50 (µM)
# output: bare number, implied unit µM

Exercise: Hello, please tell me recorded IC50 for this one: CN1CCN(c2ccc(-c3cc4c(c(N)nn4C)c(=O)[nH]3)cc2)CC1
Key: 35

###

system-tested: Insulin receptor (Homo sapiens)
experiment: Inhibition of INSR at 30 uM by microfluidic mobility shift assay
recorded-endpoint: inhibition (%)

COc1ccc(-c2c(C)[nH]c(=O)c3c(N)nn(C)c23)cc1 ... 2
COCCNc1nc(C)cc2c1c(N)nn2C ... 0
COC(=O)CCc1c(C)[nH]c(=O)c2c(N)nn(C)c12 ... 3
Cc1cc2nc(N)nc(N)c2c(=O)[nH]1 ... 0
Nc1n[nH]c2cc(-c3cccs3)[nH]c(=O)c12 ... 21
COc1ccc(-c2cc3nn(-c4ccccc4)c(N)c3c(=O)[nH]2)cc1 ... 0
Cc1cc2nc(-c3ccccc3)nc(N)c2c(=O)[nH]1 ... 5
Nc1n[nH]c2cc(-c3ccccn3)[nH]c(=O)c12 ... 34
COc1cccc(-c2cc3[nH]nc(N)c3c(=O)[nH]2)c1 ... 20
Nc1c2c(=O)[nH]c(-c3ccccc3)cc2nn1-c1ccccn1 ... 5

[a] COc1ccc(-c2cc3[nH]nc(N)c3c(=O)[nH]2)cc1
[b] O=S(=O)(NCCNC/C=C/c1ccc(Br)cc1)c1cccc2cnccc12
Exercise: Which value of inhibition is numerically greater: that of a or that of b ? Provide the label of your selected option as the answer.
Key: a
(a: 6%, b: 3%)

[P] Cc1cc2nn(-c3ccccc3)c(N)c2c(=O)[nH]1
[Q] COc1ccc(S(=O)(=O)Nc2nn(C)c3cc(C)[nH]c(=O)c23)c(OC)c1
Exercise: Sorting by inhibition in descending order, would P or Q appear first? Write down the label attached to your selection.
Key: P
(P: 4%, Q: 2%)
